EC90 values for the molecules below.
Test system: HIV-1LAI
test.protocol: HIV-1 replication in PHA-stimulated peripheral blood mononuclear cells
Format: cell-based
cond: Human immunodeficiency virus 1, PBMC, read-out: HIV-1 in PBM cells EC90

| molecule | tested.target | unit.abbreviation | measurement.qualifier | EC90 |
| --- | --- | --- | --- | --- |
| CN(C)c1ccc2nc3ccc(=[N+](C)C)cc-3sc2c1 | HIV-1LAI | nM | = | 500 |
| Nc1nc(=O)n([C@@H]2CS[C@H](CO)O2)cc1F [Emtricitabine [(-)-FTC], Emtricitabine] | HIV-1LAI | nM | = | 52 |
| COC(=O)N[C@H](C(=O)N[C@@H](Cc1ccccc1)[C@@H](O)CN(Cc1ccc(-c2ccccn2)cc1)NC(=O)[C@@H](NC(=O)OC)C(C)(C)C)C(C)(C)C | HIV-1LAI | nM | = | 22 |
| Nc1ccn(C[C@@H](CO)OCP(=O)(O)O)c(=O)n1 [Vistide (HPMPC), Vistide] | HIV-1LAI | nM | > | 100000 |

====

Examples of compounds with documented EC90 follow.
Test system: HIV-1LAI
test.protocol: HIV-1 replication in PHA-stimulated peripheral blood mononuclear cells
Assay type: cell-based
cond: Human immunodeficiency virus 1, PBMC, read-out: HIV-1 in PBM cells EC90

| item.smiles | EC90 |
| --- | --- |
| O=c1[nH]cnc2c1ncn2[C@H]1CC[C@@H](CO)O1 | 2200 nM |
| Nc1nc(N)c2ncn([C@H]3CO[C@@H](CO)O3)c2n1 | 4800 nM |
| CC(C)(C)NC(=O)[C@@H]1C[C@@H]2CCCC[C@@H]2CN1C[C@@H](O)[C@H](Cc1ccccc1)NC(=O)[C@H](CC(N)=O)NC(=O)c1ccc2ccccc2n1 | 21 nM |

====

System: XMRV
test.protocol: XMRV replication in MCF-7 cells (viral release by RT activity in supernatant)
Assay type: cell-based
cond: MCF7, 144 h, read-out: XMRV in MCF-7 cells EC50
Counter-ions that a name gives are not always drawn.
Rule: EC50 below 8 µM gives satisfied. Equal to or above 8 µM gives not satisfied.

| compound | category.label |
| --- | --- |
| C[C@H](Cn1cnc2c(N)ncnc21)OCP(=O)(O)O | not satisfied |
| Nc1nc2c(ncn2CCC(CO)CO)c(=O)[nH]1 | not satisfied |
| CN(C)c1ccc2nc3ccc(=[N+](C)C)cc-3sc2c1 | satisfied |
| Nc1ncnc2c1ncn2[C@@H]1O[C@H](CO)[C@@H](O)[C@@H]1O | satisfied |
| Nc1nc(O)c2ncn(COC(CO)CO)c2n1 | not satisfied |
| Nc1nc(=O)n([C@@H]2CS[C@H](CO)O2)cc1F [Emtricitabine [(-)-FTC], Emtricitabine] | not satisfied |
| O=c1[nH]cnc2c1ncn2[C@H]1CC[C@@H](CO)O1 | not satisfied |
| Nc1ccn(C[C@@H](CO)OCP(=O)(O)O)c(=O)n1 [Vistide (HPMPC), Vistide] | not satisfied |
| CC(C)CN(C[C@@H](O)[C@H](Cc1ccccc1)NC(=O)O[C@H]1CO[C@H]2OCC[C@H]21)S(=O)(=O)c1ccc(N)cc1 | not satisfied |
| O=c1[nH]c(=O)n([C@H]2C[C@H](O)[C@@H](CO)O2)cc1I | satisfied |
| Nc1nc(N)c2ncn([C@H]3CO[C@@H](CO)O3)c2n1 | not satisfied |
| Cc1cn([C@H]2C[C@H](N=[N+]=[N-])[C@@H](CO)O2)c(=O)[nH]c1=O [3'-Azido-3'-deoxythymidine (ZDV), 3'-Azido-3'-deoxythymidine] | satisfied |
| C[C@]12CC[C@H](O)CC1=CC[C@@H]1[C@@H]2CC[C@]2(C)C(=O)CC[C@@H]12 [Dehydroepiandrosterone (DHEA), Dehydroepiandrosterone] | not satisfied |
| Nc1nc2c(ncn2COCCO)c(=O)[nH]1 | not satisfied |
| Nc1ccn([C@@H]2CS[C@H](CO)O2)c(=O)n1 | not satisfied |
| CC(=O)Oc1ccccc1C(=O)O | not satisfied |
| CC(C)(C)NC(=O)[C@@H]1C[C@@H]2CCCC[C@@H]2CN1C[C@@H](O)[C@H](Cc1ccccc1)NC(=O)[C@H](CC(N)=O)NC(=O)c1ccc2ccccc2n1 | not satisfied |
| NC(=O)c1ncn([C@@H]2O[C@H](CO)[C@@H](O)[C@H]2O)n1 [Ribavirin (RBV), Ribavirin] | not satisfied |
| Cc1cn([C@@H]2C[C@@H](O)[C@H](CO)O2)c(=O)[nH]c1=O | not satisfied |
| Cc1cn([C@H]2C=C[C@@H](CO)O2)c(=O)[nH]c1=O | not satisfied |
| O=C1Nc2ccc(Cl)cc2[C@@](C#CC2CC2)(C(F)(F)F)O1 | not satisfied |
| CC(C)(C)NC(=O)[C@@H]1CN(Cc2cccnc2)CCN1C[C@@H](O)C[C@@H](Cc1ccccc1)C(=O)N[C@H]1c2ccccc2C[C@H]1O | not satisfied |
| CCC[C@@]1(CCc2ccccc2)CC(O)=C([C@H](CC)c2cccc(NS(=O)(=O)c3ccc(C(F)(F)F)cn3)c2)C(=O)O1 | not satisfied |
| Nc1ccn([C@H]2CC[C@@H](CO)O2)c(=O)n1 | not satisfied |
| O=C(O)P(=O)(O)O | not satisfied |
| CC(O)(CS(=O)(=O)c1ccc(F)cc1)C(=O)Nc1ccc(C#N)c(C(F)(F)F)c1 (stereo not shown) [Bicalutamide] | not satisfied |
| CCN(CC)CCCC(C)Nc1ccnc2cc(Cl)ccc12 (stereo not shown) | not satisfied |
| Nc1nc(NC2CC2)c2ncn([C@H]3C=C[C@@H](CO)C3)c2n1 | not satisfied |
| CC(C)OC(=O)OCOP(=O)(CO[C@H](C)Cn1cnc2c(N)ncnc21)OCOC(=O)OC(C)C [Tenofovir disoproxil fumarate (TDF), Tenofovir disoproxil fumarate] | satisfied |
| C=C1[C@H](CO)[C@@H](O)C[C@@H]1n1cnc2c(=O)[nH]c(N)nc21 [Entecavir (ETV), Entecavir] | not satisfied |

====

test.protocol: Cytotoxicity in MCF-7 cells (MTT / CellTiter 96 AQueous One)
Format: cell-based, human
cond: human, MCF-7 cells; read-out: XMRV in MCF-7 cells CC50
readout.type: CC50 (µM)

| compound | measurement.qualifier | quantitative.result |
| --- | --- | --- |
| Nc1ccn(C[C@@H](CO)OCP(=O)(O)O)c(=O)n1 [Vistide (HPMPC), Vistide] | > | 100 |
| COC(=O)N[C@H](C(=O)N[C@@H](Cc1ccccc1)[C@@H](O)CN(Cc1ccc(-c2ccccn2)cc1)NC(=O)[C@@H](NC(=O)OC)C(C)(C)C)C(C)(C)C | = | 40.7 |
| Cc1nnc(C(=O)NC(C)(C)c2nc(C(=O)NCc3ccc(F)cc3)c(O)c(=O)n2C)o1 [Raltegravir (RAL, MK-0518), Raltegravir] | = | 92.3 |
| Cc1cn([C@H]2C=C[C@@H](CO)O2)c(=O)[nH]c1=O | > | 100 |
| CCC[C@@]1(CCc2ccccc2)CC(O)=C([C@H](CC)c2cccc(NS(=O)(=O)c3ccc(C(F)(F)F)cn3)c2)C(=O)O1 | = | 75.6 |
| Nc1nc(N)c2ncn([C@H]3CO[C@@H](CO)O3)c2n1 | > | 100 |
| O=C(O)P(=O)(O)O | > | 100 |
| C[C@]12CC[C@H](O)CC1=CC[C@@H]1[C@@H]2CC[C@]2(C)C(=O)CC[C@@H]12 [Dehydroepiandrosterone (DHEA), Dehydroepiandrosterone] | = | 64.1 |
| CC(=O)Oc1ccccc1C(=O)O | = | 92.2 |
| Nc1nc(NC2CC2)c2ncn([C@H]3C=C[C@@H](CO)C3)c2n1 | = | 92.6 |
| O=C1Nc2ccc(Cl)cc2[C@@](C#CC2CC2)(C(F)(F)F)O1 | = | 60.4 |
| CC(C)CN(C[C@@H](O)[C@H](Cc1ccccc1)NC(=O)O[C@H]1CCOC1)S(=O)(=O)c1ccc(N)cc1 | = | 94.1 |
| C[C@H](Cn1cnc2c(N)ncnc21)OCP(=O)(O)O | = | 79.6 |

====

System: HIV-1LAI
test.protocol: HIV-1 replication in PHA-stimulated peripheral blood mononuclear cells
Format: cell-based
cond: Human immunodeficiency virus 1, PBMC, read-out: HIV-1 in PBM cells EC90
readout.type: EC90 (nM)

| item.smiles | readout.type | measurement.qualifier | quantitative.result |
| --- | --- | --- | --- |
| Cc1cn([C@H]2C=C[C@@H](CO)O2)c(=O)[nH]c1=O | EC90 | = | 490 |
| Nc1nc(NC2CC2)c2ncn([C@H]3C=C[C@@H](CO)C3)c2n1 | EC90 | = | 1700 |
| O=C(O)P(=O)(O)O | EC90 | = | 71900 |
| O=C1Nc2ccc(Cl)cc2[C@@](C#CC2CC2)(C(F)(F)F)O1 | EC90 | = | 2.7 |
| Nc1nc(O)c2ncn(COC(CO)CO)c2n1 | EC90 | > | 100000 |
